# test-method-notes: refractive index (Na D-line) (dimensionless)
# condition-details: 313.15 K; 101.33 kPa; Liquid; Standard Abbe refractometry
Kindly supply the reported refractive index values for the records listed here.
Answers are plain numbers.

See these solved cases before continuing.
> print(dat)
                            chemical.string      readout.kind  quantitative.readout
1  CCCCCC[n+]1cc(C)cc(C)c1CCCCC.O=S(=O)([N-]S(=O)(=O)C(F)(F)F)C(F)(F)F  refractive index               1.45583
2  CCCCCc1c(C)cc(C)c[n+]1CC.O=S(=O)([N-]S(=O)(=O)C(F)(F)F)C(F)(F)F  refractive index               1.45627
3  CCCCCC[n+]1cc(C)cc(C)c1C.O=S(=O)([N-]S(=O)(=O)C(F)(F)F)C(F)(F)F  refractive index                1.4599

Then this molecule:
Prompt: Which refractive index is listed for CCCCCc1c(C)cc(C)c[n+]1CCCC.O=S(=O)([N-]S(=O)(=O)C(F)(F)F)C(F)(F)F ?
Completion: 1.45549

###

# condition-details: 298.15 K; 101.33 kPa; Liquid; Capillary tube (Ostwald / Ubbelohde) method
readout-kind: viscosity (mPa·s)
Give bare numbers, in mPa·s.

> print(dat)
                            chemical.string  unit.spec  quantitative.readout
1  CCCCCC[n+]1cc(C)cc(C)c1C.O=S(=O)([N-]S(=O)(=O)C(F)(F)F)C(F)(F)F      mPa·s                   174

Return reported viscosity values for all items listed beneath this line.
1. CCCCCc1c(C)cc(C)c[n+]1CCCC.O=S(=O)([N-]S(=O)(=O)C(F)(F)F)C(F)(F)F
2. CCCCCc1c(C)cc(C)c[n+]1CC.O=S(=O)([N-]S(=O)(=O)C(F)(F)F)C(F)(F)F

Completion:
1: 253; 2: 260

Prompt: Entry CCCCCC[n+]1cc(C)cc(C)c1CCCCC.O=S(=O)([N-]S(=O)(=O)C(F)(F)F)C(F)(F)F : reported viscosity = ?
Completion: 278

###

Exercise: state measured viscosity for each of the molecules provided.
# condition-details: 303.15 K; 101.33 kPa; Liquid; Capillary tube (Ostwald / Ubbelohde) method
One number for each entry, in mPa·s.

> print(dat)
                            chemical.string  quantitative.readout
1  CCCCCc1c(C)cc(C)c[n+]1CC.O=S(=O)([N-]S(=O)(=O)C(F)(F)F)C(F)(F)F                   187

Hello, I would appreciate it if you could give viscosity for each entry below.
1. CCCCCc1c(C)cc(C)c[n+]1CCCC.O=S(=O)([N-]S(=O)(=O)C(F)(F)F)C(F)(F)F
2. CCCCCC[n+]1cc(C)cc(C)c1C.O=S(=O)([N-]S(=O)(=O)C(F)(F)F)C(F)(F)F
3. CCCCCC[n+]1cc(C)cc(C)c1CCCCC.O=S(=O)([N-]S(=O)(=O)C(F)(F)F)C(F)(F)F

Completion:
1. 186
2. 129
3. 204

###

Would you mind telling me the reported mass density of each entry?
# condition-details: 333.15 K; 101.33 kPa; Liquid; Vibrating tube method
Numbers only, in kg/m3.

Past entries and their recorded results:
> print(dat)
                            chemical.string  quantitative.readout
1  CCCCCC[n+]1cc(C)cc(C)c1C.O=S(=O)([N-]S(=O)(=O)C(F)(F)F)C(F)(F)F               1305.85
2  CCCCCC[n+]1cc(C)cc(C)c1CCCCC.O=S(=O)([N-]S(=O)(=O)C(F)(F)F)C(F)(F)F               1224.22
3  CCCCCc1c(C)cc(C)c[n+]1CC.O=S(=O)([N-]S(=O)(=O)C(F)(F)F)C(F)(F)F                1293.6

# evaluate next
Prompt: Param item = CCCCCc1c(C)cc(C)c[n+]1CCCC.O=S(=O)([N-]S(=O)(=O)C(F)(F)F)C(F)(F)F ; retrieve measured mass density.
Completion: 1258.26
